Here the recorded Kd is given for each entry.
system.name: 5,6diFW-LmrR (Lactococcus lactis subsp. cremoris, UniProt A2RI36)
Sequence (A2RI36 entry or part of it): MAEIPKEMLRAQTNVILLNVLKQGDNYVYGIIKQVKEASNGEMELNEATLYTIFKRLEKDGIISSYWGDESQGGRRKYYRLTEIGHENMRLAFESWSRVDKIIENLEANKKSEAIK
measurement.protocol: SPR binding of drugs to immobilized 5,6diFW-LmrR
cond: Binding affinity, Kd, 5,6diFW LmrR, 25 °C, SPR, mean ± SD n = 3
measured.parameter: Kd (µM)

- molecule: "COc1cccc2c1C(=O)c1c(O)c3c(c(O)c1C2=O)C[C@@](O)(C(C)=O)C[C@@H]3O[C@H]1C[C@H](N)[C@H](O)[C@H](C)O1 [Dau, Daunomycin]"
  result: 1.05
- molecule: "Cc1cc2nc3c(=O)[nH]c(=O)nc-3n(C[C@H](O)[C@H](O)[C@H](O)CO)c2cc1C [RBF, riboflavin]"
  result: 4.99

====

system.name: W-LmrR (Lactococcus lactis subsp. cremoris, UniProt A2RI36)
measurement.protocol: SPR binding of drugs to immobilized wild type LmrR (W-LmrR)
cond: W (wild type) LmrR, 25 °C, SPR, mean ± SD n = 3; read-out: Binding affinity, Kd

- compound.smiles: "Cc1cc2nc3c(=O)[nH]c(=O)nc-3n(C[C@H](O)[C@H](O)[C@H](O)CO)c2cc1C"
  system.name: "W-LmrR (Lactococcus lactis subsp. cremoris, UniProt A2RI36)"
  readout.unit: "nM"
  Kd: 460

====

system.name: 5,6,7triFW-LmrR (Lactococcus lactis subsp. cremoris, UniProt A2RI36)
measurement.protocol: SPR binding of drugs to immobilized 5,6,7triFW-LmrR
cond: Binding affinity, Kd, 5,6,7triFW LmrR, 10 °C, SPR, mean ± SD n = 3
pKd: −log10 of the molar value.

- compound.smiles: "COc1cccc2c1C(=O)c1c(O)c3c(c(O)c1C2=O)C[C@@](O)(C(C)=O)C[C@@H]3O[C@H]1C[C@H](N)[C@H](O)[C@H](C)O1"
  pKd: 6.23

====

system.name: RibU W97Y labeled with 5FW (Lactococcus lactis subsp. cremoris, UniProt D8KIE9, W97Y)
Construct: His10
Sequence (D8KIE9 whole entry W97Y): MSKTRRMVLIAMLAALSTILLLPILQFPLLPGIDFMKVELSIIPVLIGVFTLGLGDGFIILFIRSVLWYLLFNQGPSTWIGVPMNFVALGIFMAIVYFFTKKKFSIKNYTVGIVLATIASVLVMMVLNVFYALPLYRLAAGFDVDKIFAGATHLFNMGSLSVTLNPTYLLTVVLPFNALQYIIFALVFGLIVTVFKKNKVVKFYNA
measurement.protocol: Fluorescence titration of RibU with RBF, 5FW variant

- compound.smiles: "Cc1cc2nc3c(=O)[nH]c(=O)nc-3n(C[C@H](O)[C@H](O)[C@H](O)CO)c2cc1C"
  Kd (nM): 5.4

====

system.name: 5FW-LmrR (Lactococcus lactis subsp. cremoris)
measurement.protocol: SPR binding of drugs to immobilized 5FW-LmrR
cond: Binding affinity, Kd, 5FW LmrR, 10 °C, SPR, mean ± SD n = 3

- compound.smiles: "COc1cccc2c1C(=O)c1c(O)c3c(c(O)c1C2=O)C[C@@](O)(C(C)=O)C[C@@H]3O[C@H]1C[C@H](N)[C@H](O)[C@H](C)O1"
  readout.unit: "nM"
  Kd: 280

====

# reported Kd; entries follow
system.name: 5,6,7triFW-LmrR (Lactococcus lactis subsp. cremoris)
measurement.protocol: SPR binding of drugs to immobilized 5,6,7triFW-LmrR
cond: Binding affinity, Kd, 5,6,7triFW LmrR, 25 °C, SPR, mean ± SD n = 3
Description: LmrR binds different drugs including Dau and RBF.[19],[20] To investigate the importance of π–π interactions for drug binding, the electron density in the π electron cloud of W96 was modulated by progressive fluorination of the W96 indole side chain. […] The SPR assays can also inform on the kinetics of the LmrR-drug interaction, but for the assays at 25 °C, the kon and koff rates could not be analyzed properly, because the rates were too fast at those conditions. […]
measured.parameter: Kd

- compound: "COc1cccc2c1C(=O)c1c(O)c3c(c(O)c1C2=O)C[C@@](O)(C(C)=O)C[C@@H]3O[C@H]1C[C@H](N)[C@H](O)[C@H](C)O1 [Dau, Daunomycin]"
  result: "1.44 µM"
- compound: "Cc1cc2nc3c(=O)[nH]c(=O)nc-3n(C[C@H](O)[C@H](O)[C@H](O)CO)c2cc1C [RBF, riboflavin]"
  result: "8.37 µM"

====

system.name: UniProt A2RI36
measurement.protocol: SPR binding of drugs to immobilized LmrR labeled with 5MeW
cond: Binding affinity, Kd, 5MeW LmrR, 10 °C, SPR, mean ± SD n = 3
Procedure: LmrR binds different drugs including Dau and RBF.[19],[20] To investigate the importance of π–π interactions for drug binding, the electron density in the π electron cloud of W96 was modulated by progressive fluorination of the W96 indole side chain. […] The SPR assays can also inform on the kinetics of the LmrR-drug interaction, but for the assays at 25 °C, the kon and koff rates could not be analyzed properly, because the rates were too fast at those conditions. […]
measured.parameter: Kd (µM)

- compound.smiles: "COc1cccc2c1C(=O)c1c(O)c3c(c(O)c1C2=O)C[C@@](O)(C(C)=O)C[C@@H]3O[C@H]1C[C@H](N)[C@H](O)[C@H](C)O1"
  measured.parameter: "Kd"
  result: 0.104

====

system.name: W-LmrR (Lactococcus lactis subsp. cremoris)
measurement.protocol: SPR binding of drugs to immobilized wild type LmrR (W-LmrR)
cond: Binding affinity, Kd, W (wild type) LmrR, 25 °C, SPR, mean ± SD n = 3
pKd: −log10 of the molar value.
measured.parameter: pKd

- molecule: "COc1cccc2c1C(=O)c1c(O)c3c(c(O)c1C2=O)C[C@@](O)(C(C)=O)C[C@@H]3O[C@H]1C[C@H](N)[C@H](O)[C@H](C)O1 [Dau, Daunomycin]"
  result: 6.35

====

system.name: LmrR labeled with 5MeW (Lactococcus lactis subsp. cremoris, UniProt A2RI36)
Sequence (A2RI36 entry or part of it): as the sequence (A2RI36 entry or part of it) above
measurement.protocol: SPR binding of drugs to immobilized LmrR labeled with 5MeW
cond: Binding affinity, Kd, 5MeW LmrR, 25 °C, SPR, mean ± SD n = 3

- compound.smiles: "Cc1cc2nc3c(=O)[nH]c(=O)nc-3n(C[C@H](O)[C@H](O)[C@H](O)CO)c2cc1C"
  readout.unit: "µM"
  Kd: 0.38
- compound.smiles: "COc1cccc2c1C(=O)c1c(O)c3c(c(O)c1C2=O)C[C@@](O)(C(C)=O)C[C@@H]3O[C@H]1C[C@H](N)[C@H](O)[C@H](C)O1"
  readout.unit: "µM"
  Kd: 0.37

====

system.name: 5,6diFW-LmrR (Lactococcus lactis subsp. cremoris, UniProt A2RI36)
measurement.protocol: SPR binding of drugs to immobilized 5,6diFW-LmrR
cond: Binding affinity, Kd, 5,6diFW LmrR, 10 °C, SPR, mean ± SD n = 3
Protocol: LmrR binds different drugs including Dau and RBF.[19],[20] To investigate the importance of π–π interactions for drug binding, the electron density in the π electron cloud of W96 was modulated by progressive fluorination of the W96 indole side chain. […] The SPR assays can also inform on the kinetics of the LmrR-drug interaction, but for the assays at 25 °C, the kon and koff rates could not be analyzed properly, because the rates were too fast at those conditions. […]
pKd: −log10 of the molar value.
measured.parameter: pKd

- compound.smiles: "COc1cccc2c1C(=O)c1c(O)c3c(c(O)c1C2=O)C[C@@](O)(C(C)=O)C[C@@H]3O[C@H]1C[C@H](N)[C@H](O)[C@H](C)O1"
  system.name: "5,6diFW-LmrR (Lactococcus lactis subsp. cremoris, UniProt A2RI36)"
  result: 6.25

====

system.name: 4,5,6,7tetraFW-LmrR (Lactococcus lactis subsp. cremoris, UniProt A2RI36)
measurement.protocol: biochemical
Assay type: binding
cond: Binding affinity, Kd, 4,5,6,7tetraFW LmrR, 10 °C, SPR, mean ± SD n = 3

- molecule: "COc1cccc2c1C(=O)c1c(O)c3c(c(O)c1C2=O)C[C@@](O)(C(C)=O)C[C@@H]3O[C@H]1C[C@H](N)[C@H](O)[C@H](C)O1 [Dau, Daunomycin]"
  system.name: "4,5,6,7tetraFW-LmrR (Lactococcus lactis subsp. cremoris, UniProt A2RI36)"
  readout.unit: "µM"
  Kd: 1.68

====

system.name: RibU W97Y labeled with 5,7diFW (Lactococcus lactis subsp. cremoris, UniProt D8KIE9, W97Y)
Construct: His10
measurement.protocol: Fluorescence titration of RibU with RBF, 5,7diFW variant

- compound.smiles: "Cc1cc2nc3c(=O)[nH]c(=O)nc-3n(C[C@H](O)[C@H](O)[C@H](O)CO)c2cc1C"
  readout.unit: "nM"
  Kd: 8.2

====

system.name: 5FW-LmrR (Lactococcus lactis subsp. cremoris)
measurement.protocol: SPR binding of drugs to immobilized 5FW-LmrR
cond: Binding affinity, Kd, 5FW LmrR, 25 °C, SPR, mean ± SD n = 3
pKd: −log10 of the molar value.
measured.parameter: pKd

- compound.smiles: "COc1cccc2c1C(=O)c1c(O)c3c(c(O)c1C2=O)C[C@@](O)(C(C)=O)C[C@@H]3O[C@H]1C[C@H](N)[C@H](O)[C@H](C)O1"
  system.name: "5FW-LmrR (Lactococcus lactis subsp. cremoris)"
  result: 6.37
- compound.smiles: "Cc1cc2nc3c(=O)[nH]c(=O)nc-3n(C[C@H](O)[C@H](O)[C@H](O)CO)c2cc1C"
  system.name: "5FW-LmrR (Lactococcus lactis subsp. cremoris)"
  result: 6.01
